Assign DC50 to each entry below.
Molecular target: Protein cereblon/Interleukin-1 receptor-associated kinase 4 (Homo sapiens, UniProt Q9NWZ3+Q96SW2)
Sequence (Q9NWZ3 whole entry): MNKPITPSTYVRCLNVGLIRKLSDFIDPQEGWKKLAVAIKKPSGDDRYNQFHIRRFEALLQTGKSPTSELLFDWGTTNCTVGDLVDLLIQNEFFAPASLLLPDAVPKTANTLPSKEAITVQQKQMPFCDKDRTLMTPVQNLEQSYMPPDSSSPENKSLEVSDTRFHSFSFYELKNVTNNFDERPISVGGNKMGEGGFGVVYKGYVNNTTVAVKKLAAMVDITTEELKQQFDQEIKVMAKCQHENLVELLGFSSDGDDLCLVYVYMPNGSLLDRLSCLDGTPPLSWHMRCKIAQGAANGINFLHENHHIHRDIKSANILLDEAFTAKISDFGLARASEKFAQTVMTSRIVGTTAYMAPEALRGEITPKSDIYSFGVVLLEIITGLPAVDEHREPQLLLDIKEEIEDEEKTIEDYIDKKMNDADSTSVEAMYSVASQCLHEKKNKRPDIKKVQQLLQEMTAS
Sequence (Q96SW2 whole entry): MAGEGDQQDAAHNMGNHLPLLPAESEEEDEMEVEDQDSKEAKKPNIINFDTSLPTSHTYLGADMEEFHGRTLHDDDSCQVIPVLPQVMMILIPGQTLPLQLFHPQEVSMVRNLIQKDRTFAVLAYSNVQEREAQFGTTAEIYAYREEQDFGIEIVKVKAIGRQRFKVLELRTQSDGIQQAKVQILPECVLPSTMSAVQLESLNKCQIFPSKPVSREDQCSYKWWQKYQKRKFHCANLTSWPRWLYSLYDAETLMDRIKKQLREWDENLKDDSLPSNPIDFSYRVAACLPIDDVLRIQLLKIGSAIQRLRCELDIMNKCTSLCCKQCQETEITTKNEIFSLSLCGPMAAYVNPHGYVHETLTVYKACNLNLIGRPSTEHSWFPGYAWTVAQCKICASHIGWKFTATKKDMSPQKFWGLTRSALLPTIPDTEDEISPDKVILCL
Assay: PROTAC activity at CRBN/IRAK4 in human OCI-Ly10 cells assessed as induction of IRAK4 degradation measured after 24 hrs by MSD assay
Type: cell-based
Number in µM, nothing else.

Challenge: Entry under review: CC(C)(O)c1cc2nc([C@H]3CC[C@H](CN4CC5(CC(CCNc6cccc7c6C(=O)N([C@H]6CCC(=O)NC6=O)C7=O)C5)C4)CC3)sc2cc1NC(=O)c1cccc(C(F)(F)F)n1 . Reported DC50?
Response given: 0.0063

Challenge: // returns reported DC50 for input CN(CCCO[C@H]1C[C@H](Nc2cccc3c2C(=O)N(C2CCC(=O)NC2=O)C3=O)C1)C[C@H]1CC[C@H](n2cc3cc(NC(=O)c4cccc(C(F)(F)F)n4)c(C(F)F)cc3n2)CC1 (stereo partly drawn)
Response given: 0.013

Challenge: Sample CN(CCCN(C)c1cccc2c1C(=O)N(C1CCC(=O)NC1=O)C2=O)C[C@H]1CC[C@H](n2cc3cc(NC(=O)c4cccc(C(F)(F)F)n4)c(C(C)(C)O)cc3n2)CC1 (stereo partly drawn) — what was its DC50?
Response given: 0.014

----------
Molecular target: Protein cereblon/Interleukin-1 receptor-associated kinase 4 (Homo sapiens, UniProt Q9NWZ3+Q96SW2)
Test: PROTAC activity at CRBN/IRAK4 in human OCI-Ly10 cells assessed as induction of IRAK4 degradation measured after 24 hrs by MSD assay
Assay type: cell-based
I'd be grateful if you could share measured log10 DC50 for these entries.
// do not treat as linear: log10 of DC50, unit nM

Challenge: Dear colleague, I am looking for the recorded log10 DC50 of the following compound: COc1cc2nn([C@H]3CC[C@H](CN(C)CCCO[C@H]4C[C@H](Nc5cccc6c5C(=O)N(C5CCC(=O)NC5=O)C6=O)C4)CC3)cc2cc1NC(=O)c1cccc(C(F)(F)F)n1 (stereo partly specified)
Response given: 1.46

Challenge: Can you look up the measured log10 DC50 of CC(C)(O)c1cc2nn(CCCCCNCCCNc3cccc4c3C(=O)N(C3CCC(=O)NC3=O)C4=O)cc2cc1NC(=O)c1cccc(C(F)(F)F)n1 (stereo unspecified) for me?
Response given: 2.11

Challenge: Need log10 DC50, item O=C1CCC(N2C(=O)c3cccc(NCC4CC5(CCN(C[C@H]6CC[C@H](n7cc8cc(NC(=O)c9cccc(C(F)(F)F)n9)c(C(F)F)cc8n7)CC6)CC5)C4)c3C2=O)C(=O)N1 (stereo partly specified)
Response given: 1.75

Challenge: Request the reported log10 DC50 associated with CC(C)(O)c1cc2nn([C@H]3CC[C@H](CN4CCC5(CC4)CC(CNc4cccc6c4C(=O)N(C4CCC(=O)NC4=O)C6=O)C5)CC3)cc2cc1NC(=O)c1cccc(C(F)(F)F)n1 (stereo partly specified)
Response given: 0.78

Challenge: // log10 DC50 lookup, key: CN(CCCOCCCNc1cccc2c1C(=O)N(C1CCC(=O)NC1=O)C2=O)C[C@H]1CC[C@H](n2cc3cc(NC(=O)c4cccc(C(F)(F)F)n4)c(C(C)(C)O)cc3n2)CC1 (stereo partly specified)
Response given: 1.08

----------
Test: Half life in rat at 2 mg/kg, iv by LC-MS/MS analysis
Assay type: ADME, organism-based
Settings: in vivo
Assignment: determine reported half-life for the given molecules.
Only the number, expressed in h, is required.

Challenge: Item under review: CC(C)(O)c1cc2nn([C@H]3CC[C@H](CN4CCC5(CC4)CC(CNc4cccc6c4C(=O)N(C4CCC(=O)NC4=O)C6=O)C5)CC3)cc2cc1NC(=O)c1cccc(C(F)(F)F)n1 (some centres not stated) . Reported half-life?
Response given: 11

Challenge: Entry COc1cc2nc([C@H]3CC[C@H](CN4CC5(CC(CCNc6cccc7c6C(=O)N(C6CCC(=O)NC6=O)C7=O)C5)C4)CC3)sc2cc1NC(=O)c1cccc(C(F)(F)F)n1 (some centres not stated) has what half-life?
Response given: 24

Challenge: // returns reported half-life for input CC(C)(O)c1cc2nn([C@H]3CC[C@H](CN4CCC(O[C@H]5C[C@H](Nc6cccc7c6C(=O)N(C6CCC(=O)NC6=O)C7=O)C5)CC4)CC3)cc2cc1NC(=O)c1cccc(C(F)(F)F)n1 (some centres not stated)
Response given: 16

Challenge: Any idea what half-life was measured for COc1cc2nc([C@H]3CC[C@H](CN4CC5(CC(CCNc6cccc7c6C(=O)N(C6CCC(=O)NC6=O)C7=O)C5)C4)CC3)oc2cc1NC(=O)c1cccc(C(F)(F)F)n1 (some centres not stated) ?
Response given: 12

Challenge: half-life for COc1cc2nn([C@H]3CC[C@H](CN4CC5(CC(CCNc6cccc7c6C(=O)N(C6CCC(=O)NC6=O)C7=O)C5)C4)CC3)cc2cc1NC(=O)c1cccc(C(F)(F)F)n1 (some centres not stated) ?
Response given: 17

Challenge: Value lookup for half-life; key = COc1cc2nc([C@H]3CC[C@H](CN4CC5(CC(CCNc6cccc7c6C(=O)N(C6CCC(=O)NC6=O)C7=O)C5)C4)CC3)cn2cc1NC(=O)c1cccc(C(F)(F)F)n1 (some centres not stated)
Response given: 15

Challenge: Form field: reported half-life of COc1cc2nn([C@H]3CC[C@H](CN4CCC5(CC4)CC(CNc4cccc6c4C(=O)N(C4CCC(=O)NC4=O)C6=O)C5)CC3)cc2cc1NC(=O)c1cccc(C(F)(F)F)n1 (some centres not stated)
Response given: 25

Challenge: Which half-life reading was recorded for the molecule O=C1CCC(N2C(=O)c3cccc(NCC4CC5(CCN(C[C@H]6CC[C@H](n7cc8cc(NC(=O)c9cccc(C(F)(F)F)n9)c(C(F)F)cc8n7)CC6)CC5)C4)c3C2=O)C(=O)N1 (some centres not stated) ?
Response given: 29

Challenge: I would be grateful if you could share the reported half-life for CC(C)(O)c1cc2nc([C@H]3CC[C@H](CN4CC5(CC(CCNc6cccc7c6C(=O)N(C6CCC(=O)NC6=O)C7=O)C5)C4)CC3)sc2cc1NC(=O)c1cccc(C(F)(F)F)n1 (some centres not stated) [ZOMIRADOMIDE] .
Response given: 17

Challenge: Entry under review: CN(CCCO[C@H]1C[C@H](Nc2cccc3c2C(=O)N(C2CCC(=O)NC2=O)C3=O)C1)C[C@H]1CC[C@H](n2cc3cc(NC(=O)c4cccc(C(F)(F)F)n4)c(C(C)(C)O)cc3n2)CC1 (some centres not stated) . Reported half-life?
Response given: 3.8

Challenge: What measured half-life goes with CC(C)(O)c1cc2nn([C@H]3CC[C@H](CN4CCC5(CC4)CC(Nc4cccc6c4C(=O)N(C4CCC(=O)NC4=O)C6=O)C5)CC3)cc2cc1NC(=O)c1cccc(C(F)(F)F)n1 (some centres not stated) ?
Response given: 12

Challenge: Quick one: half-life of COc1cc2nc([C@H]3CC[C@H](CN4CC5(CC(CCNc6cccc7c6C(=O)N(C6CCC(=O)NC6=O)C7=O)C5)C4)CC3)n(C)c2cc1NC(=O)c1cccc(C(F)(F)F)n1 (some centres not stated) ?
Response given: 11

----------
Experiment: Oral bioavailability in Non human primate at 2.1 mg/kg by LC-MS/MS analysis
Assay type: ADME, organism-based
Conditions: primates, in vivo
REPORTED ENDPOINT: bioavailability (%)
Your answer should be a plain number; it is taken to be in %.

Challenge: Given the entry CC(C)(O)c1cc2nc([C@H]3CC[C@H](CN4CC5(CC(CCNc6cccc7c6C(=O)N(C6CCC(=O)NC6=O)C7=O)C5)C4)CC3)sc2cc1NC(=O)c1cccc(C(F)(F)F)n1 (stereo partly specified) [ZOMIRADOMIDE] , report its measured bioavailability.
Response given: 42

----------
Test: Passive permeability of the compound in wild type MDCK cells across apical to basolateral side at 1 uM measured for 120 mins by LC-MS/MS analysis
Assay type: ADME, cell-based, Canis lupus familiaris
Settings: dog, read-out: permeability
Please provide measured Papp A→B at 2 h, 1 µM for the entries that follow.
In your response, put the unit directly after the numeric value.

Challenge: What measured Papp A→B at 2 h, 1 µM goes with COc1cc2nn([C@H]3CC[C@H](CN4CCC5(CC4)CC(CNc4cccc6c4C(=O)N(C4CCC(=O)NC4=O)C6=O)C5)CC3)cc2cc1NC(=O)c1cccc(C(F)(F)F)n1 (some centres not stated) ?
Response given: 1.3 ×10⁻⁶ cm/s

Challenge: What Papp A→B at 2 h, 1 µM value was documented for this compound, CN(CCCCc1cccc2c1C(=O)N(C1CCC(=O)NC1=O)C2=O)C[C@H]1CC[C@H](n2cc3cc(NC(=O)c4cccc(C(F)(F)F)n4)c(C(C)(C)O)cc3n2)CC1 (some centres not stated) ?
Response given: 1.3 ×10⁻⁶ cm/s

Challenge: Request the reported Papp A→B at 2 h, 1 µM associated with CC(C)(O)c1cc2nn([C@H]3CC[C@H](CN4CCC(O[C@H]5C[C@H](Nc6cccc7c6C(=O)N(C6CCC(=O)NC6=O)C7=O)C5)CC4)CC3)cc2cc1NC(=O)c1cccc(C(F)(F)F)n1 (some centres not stated)
Response given: 26 ×10⁻⁶ cm/s

Challenge: Which Papp A→B at 2 h, 1 µM is listed for CN(CCCOCCCNc1cccc2c1C(=O)N(C1CCC(=O)NC1=O)C2=O)C[C@H]1CC[C@H](n2cc3cc(NC(=O)c4cccc(C(F)(F)F)n4)c(C(C)(C)O)cc3n2)CC1 (some centres not stated) ?
Response given: 7.5 ×10⁻⁶ cm/s

Challenge: Would you kindly share the measured Papp A→B at 2 h, 1 µM for COc1cc2nn([C@H]3CC[C@H](CN4CC5(CC(CCNc6cccc7c6C(=O)N(C6CCC(=O)NC6=O)C7=O)C5)C4)CC3)cc2cc1NC(=O)c1cccc(C(F)(F)F)n1 (some centres not stated) ?
Response given: 1 ×10⁻⁶ cm/s

Challenge: Look at this compound and give its reported Papp A→B at 2 h, 1 µM. CN(CCCO[C@H]1C[C@@H](Nc2cccc3c2C(=O)N(C2CCC(=O)NC2=O)C3=O)C1)C[C@H]1CC[C@H](n2cc3cc(NC(=O)c4cccc(C(F)(F)F)n4)c(C(C)(C)O)cc3n2)CC1 (some centres not stated)
Response given: 2.8 ×10⁻⁶ cm/s

Challenge: Which Papp A→B at 2 h, 1 µM value belongs to CC(C)(O)c1cc2nn([C@H]3CC[C@H](CN4CCC5(CC4)CC(Nc4cccc6c4C(=O)N(C4CCC(=O)NC4=O)C6=O)C5)CC3)cc2cc1NC(=O)c1cccc(C(F)(F)F)n1 (some centres not stated) ?
Response given: 2.8 ×10⁻⁶ cm/s
